compounds and their reported MIC90
# System: Mycobacterium tuberculosis
# procedure.details: Antitubercular activity against Mycobacterium tuberculosis SS3
# Type: functional

compound | MIC90
CCCn1cc(C(=O)O)c(=O)c2ccc3c(nnn3C)c21 | 1.6 µg/mL
Cc1ccc(Cn2cc(C(=O)O)c(=O)c3ccc4c(nnn4C)c32)cc1 | > 32 µg/mL
Cn1nnc2c3c(ccc21)c(=O)c(C(=O)O)cn3CCc1ccccc1 | 3.2 µg/mL
Cn1nnc2c3c(ccc21)c(=O)c(C(=O)O)cn3Cc1ccc(Br)cc1 | > 32 µg/mL
CO[C@H]1/C=C/O[C@@]2(C)Oc3c(C)c(O)c4c(O)c(c(/C=N/N5CCN(C)CC5)c(O)c4c3C2=O)NC(=O)/C(C)=C\C=C\[C@H](C)[C@H](O)[C@@H](C)[C@@H](O)[C@@H](C)[C@H](OC(C)=O)[C@@H]1C [RIFAMPIN] | 0.5 µg/mL
CCOC(=O)c1cn(C)c2c(ccc3c2nnn3C)c1=O | 0.5 µg/mL
Cn1cc(C(=O)O)c(=O)c2ccc3c(nnn3C)c21 | 0.5 µg/mL
C=CCn1cc(C(=O)OCC)c(=O)c2ccc3c(nnn3C)c21 | > 32 µg/mL
CCOC(=O)c1cn(Cc2ccc(Br)cc2)c2c(ccc3c2nnn3C)c1=O | > 32 µg/mL
CCOC(=O)c1cn(Cc2ccc(C)cc2)c2c(ccc3c2nnn3C)c1=O | > 32 µg/mL
CCCCn1cc(C(=O)O)c(=O)c2ccc3c(nnn3C)c21 | > 32 µg/mL
CCCCn1cc(C(=O)OCC)c(=O)c2ccc3c(nnn3C)c21 | 0.5 µg/mL
